Origin of measurements: patent US20250382332A1

test system: Botrytis cinerea (B05.10); assay: Resazurin antifungal assay of 180 alpha-factor peptide variants towards Botrytis (Example 2); assay type: cell-based; conditions: % inhibition of fungal growth, Botrytis conidia, peptide 20 μM, resazurin
Peptide text beside a SMILES is read from it.
measurement_label: Inhibition at 20 μM (%)
Answers are plain numbers, in %.

Below, 3 compounds whose answers are already recorded.
CSCC[C@H](NC(=O)[C@@H]1CCCN1C(=O)[C@H](CCC(N)=O)NC(=O)CNC(=O)[C@@H]1CCCN1C(=O)[C@H](CCCCN)NC(=O)[C@H](Cc1ccccc1)NC(=O)[C@H](CCCCN)NC(=O)[C@H](CC(C)C)NC(=O)[C@@H](NC(=O)[C@H](Cc1c[nH]cn1)NC(=O)[C@@H](N)CCCCN)C(C)C)C(=O)N[C@@H](Cc1ccc(O)cc1)C(=O)O [compound 87] (H-KHVLKFKPGQPMY-OH; N-terminus and C-terminus assumed)	98.89
CSCC[C@H](NC(=O)[C@H](Cc1c[nH]cn1)NC(=O)[C@@H](N)CCCCN)C(=O)N[C@@H](CC(C)C)C(=O)N[C@@H](CCCNC(=N)N)C(=O)N[C@@H](Cc1ccccc1)C(=O)N[C@@H](CCCCN)C(=O)N1CCC[C@H]1C(=O)NCC(=O)N[C@@H](CCC(N)=O)C(=O)N1CCC[C@H]1C(=O)N[C@@H](CCSC)C(=O)N[C@@H](Cc1ccc(O)cc1)C(=O)O [compound 84] (H-KHMLRFKPGQPMY-OH; N-terminus and C-terminus assumed)	97.08
CSCC[C@H](NC(=O)[C@@H]1CCCN1C(=O)[C@H](CCC(N)=O)NC(=O)CNC(=O)[C@@H]1CCCN1C(=O)[C@H](Cc1ccccc1)NC(=O)[C@H](CC(C)C)NC(=O)[C@H](CCCCN)NC(=O)[C@H](CC(C)C)NC(=O)[C@H](Cc1c[nH]c2ccccc12)NC(=O)[C@H](Cc1c[nH]cn1)NC(=O)[C@@H](N)CCCCN)C(=O)N[C@@H](Cc1ccc(O)cc1)C(=O)O [compound 61] (H-KHWLKLFPGQPMY-OH; N-terminus and C-terminus assumed)	98.64

Report Inhibition at 20 μM for each item below.
1. CC[C@H](C)[C@H](NC(=O)[C@H](CCCNC(=N)N)NC(=O)[C@H](CC(C)C)NC(=O)[C@H](CCSC)NC(=O)[C@H](Cc1c[nH]cn1)NC(=O)[C@@H](N)CCCCN)C(=O)N[C@@H](CCCCN)C(=O)N1CCC[C@H]1C(=O)NCC(=O)N[C@@H](CCC(N)=O)C(=O)N1CCC[C@H]1C(=O)N[C@@H](CCSC)C(=O)N[C@@H](Cc1ccc(O)cc1)C(=O)O [compound 67] (H-KHMLRIKPGQPMY-OH; N-terminus and C-terminus assumed)
2. CSCC[C@H](NC(=O)[C@@H]1CCCN1C(=O)[C@H](CCC(N)=O)NC(=O)CNC(=O)[C@H](C)NC(=O)[C@H](CCCNC(=N)N)NC(=O)[C@H](CC(C)C)NC(=O)[C@H](CCCNC(=N)N)NC(=O)CNC(=O)[C@H](Cc1c[nH]c2ccccc12)NC(=O)[C@H](Cc1c[nH]cn1)NC(=O)[C@@H](N)CCCCN)C(=O)N[C@@H](Cc1ccc(O)cc1)C(=O)O [compound 68] (H-KHWGRLRAGQPMY-OH; N-terminus and C-terminus assumed)

Result:
97.68
100
